Test system: 439559-082-T-J2-PDC spheroids viability;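 note: spheroids exposed to the agents for 7 days before readout; percent of luminescence signal in DMSO vehicle wells taken as 100% viability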
Assay Procedure: Anticancer human tumor 439559-082-T-J2-PDC patient-derived colon adenocarcinoma cell line growth inhibition [GQUAD]
Test Context: second compound 1 µM; first compound 0.316 µM; stronger effect = lower value
Quick reference: viability, T/C of the listed items.
Give the value, in units of %, as a plain number.

// known answers, use as guide
- Compound: "CCc1c2c(nc3ccc(O)cc13)-c1cc3c(c(=O)n1C2)COC(=O)[C@]3(O)CC + Cc1[nH]c2ccc(F)cc2c1-c1nc2c3cccnc3c3ncccc3c2[nH]1"
  Quantitative Result: 43.6
- Compound: "CC1COCCN1c1cc(C2(S(C)(=N)=O)CC2)nc(-c2ccnc3[nH]ccc23)n1 (stereo not given) + Cc1[nH]c2ccc(F)cc2c1-c1nc2c3cccnc3c3ncccc3c2[nH]1"
  Quantitative Result: 100
- Compound: "CC(=O)O[C@H]1C(=O)[C@@]2(C)[C@H]([C@H](OC(=O)c3ccccc3)[C@]3(O)C[C@H](OC(=O)[C@H](O)[C@@H](NC(=O)c4ccccc4)c4ccccc4)C(C)=C1C3(C)C)[C@]1(OC(C)=O)CO[C@@H]1C[C@@H]2O + Cc1[nH]c2ccc(F)cc2c1-c1nc2c3cccnc3c3ncccc3c2[nH]1"
  Quantitative Result: 61.9
- Compound: "CCCS(=O)(=O)Nc1ccc(F)c(C(=O)c2c[nH]c3ncc(-c4ccc(Cl)cc4)cc23)c1F + Cc1cnc(CNC(=O)c2c(=O)c3ccc(N4CCCN(C)CC4)nc3n3c2sc2ccccc23)cn1"
  Quantitative Result: 78
- Compound: "CC(C)n1c(=O)n(C)c2cnc3cc(F)c(-c4ccc(OCCCN5CCCCC5)nc4)cc3c21 + Cc1[nH]c2ccc(F)cc2c1-c1nc2c3cccnc3c3ncccc3c2[nH]1"
  Quantitative Result: 118

query: GET viability, T/C where system = 439559-082-T-J2-PDC spheroids viability and item = CCCS(=O)(=O)Nc1ccc(F)c(C(=O)c2c[nH]c3ncc(-c4ccc(Cl)cc4)cc23)c1F + Cc1[nH]c2ccc(F)cc2c1-c1nc2c3cccnc3c3ncccc3c2[nH]1;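 note: spheroids exposed to the agents for 7 days before readout; percent of luminescence signal in DMSO vehicle wells taken as 100% viability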
result: 90.4

query: Give 439559-082-T-J2-PDC spheroids viability viability, T/C for the following compound: C=CCn1c(=O)c2cnc(Nc3ccc(N4CCN(C)CC4)cc3)nc2n1-c1cccc(C(C)(C)O)n1 + CN(C)c1ccc(Nc2c3ccc(NC(=O)CCN4CCCC4)cc3nc3cc(NC(=O)CCN4CCCC4)ccc23)cc1
result: 88.6
